Cited source for all entries: patent US20180155427A1

Biological target: T1, human PD-1 expressed on cells (human, UniProt Q15116 25-288)
T1 construct: whole, on cells; Treated as one molecule; also called PD-1 expressing Jurkat cells; human PD-1 transfected Jurkat cells
T1 sequence (Q15116 25-288): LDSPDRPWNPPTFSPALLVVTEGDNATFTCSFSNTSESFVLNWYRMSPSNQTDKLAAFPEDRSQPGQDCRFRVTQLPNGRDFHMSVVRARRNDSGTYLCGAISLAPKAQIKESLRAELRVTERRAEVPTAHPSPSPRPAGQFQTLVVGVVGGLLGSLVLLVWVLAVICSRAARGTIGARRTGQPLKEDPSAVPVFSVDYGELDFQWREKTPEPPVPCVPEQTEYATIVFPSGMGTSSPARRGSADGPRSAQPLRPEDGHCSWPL
Test: FACS blocking assay on PD-1-expressing 300.19 cells; blocked ligand at constant concentration: PD-L1-huIgG1 Fc fusion protein (legend paragraph 211 names 'PD-L1-Ig and PD-L2-Ig' for FIG. 8A); bound ligand detected with PE anti-human IgG F(ab')2
measured_metric: IC50 (read off the curve)

Worked cases, IC50 (read off the curve) given:
chimeric antibody BAP049-chi (Tyr) (antibody, human IgG4 S228P, kappa, V domains shown, Murine variable regions, human IgG4(S228P), human kappa; also called BAP049-chi-Y; Chi mAb (Tyr)) VH: QVQLQQSGSELVRPGASVKLSCKASGYTFTTYWMHWVRQRPGQGLEWIGNIYPGTGGSNFDEKFKNRTSLTVDTSSTTAYMHLASLTSEDSAVYYCTRWTTGTGAYWGQGTTVTVSS VL: DIVMTQSPSSLTVTAGEKVTMSCKSSQSLLDSGNQKNFLTWYQQKPGQPPKLLIFWASTRESGVPDRFTGSGSVTDFTLTISSVQAEDLAVYYCQNDYSYPYTFGQGTKVEIKR : ~0.8 mg/L
humanized mAb BAP049-hum05 (antibody, human IgG4 S228P, kappa, V domains shown, Human IgG4(S228P), human kappa; tested as concentrated supernatant of transiently transfected CHO cells; also called Clone No. 05) VH: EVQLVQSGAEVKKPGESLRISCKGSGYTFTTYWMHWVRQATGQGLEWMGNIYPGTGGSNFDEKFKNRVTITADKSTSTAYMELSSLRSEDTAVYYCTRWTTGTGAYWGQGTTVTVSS VL: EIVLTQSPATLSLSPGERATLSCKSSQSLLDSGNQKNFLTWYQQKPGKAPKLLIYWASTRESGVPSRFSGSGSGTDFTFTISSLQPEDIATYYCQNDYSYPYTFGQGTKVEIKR : ~1 mg/L
humanized mAb BAP049-hum01 (antibody, human IgG4 S228P, kappa, V domains shown, Human IgG4(S228P), human kappa; tested as concentrated supernatant of transiently transfected CHO cells; also called Clone No. 01) VH: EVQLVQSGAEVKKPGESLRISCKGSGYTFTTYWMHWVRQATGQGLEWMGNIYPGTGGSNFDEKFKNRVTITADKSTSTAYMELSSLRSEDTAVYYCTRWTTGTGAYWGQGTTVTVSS VL: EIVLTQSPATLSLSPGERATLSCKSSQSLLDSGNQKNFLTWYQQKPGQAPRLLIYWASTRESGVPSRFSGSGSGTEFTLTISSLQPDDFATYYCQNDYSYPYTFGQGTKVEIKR : ~1 mg/L

Now consider the entry below.
Query block: # IC50 (read off the curve) lookup, item murine anti-PD-1 monoclonal antibody BAP049 (antibody, V domains shown, the murine constant regions are not; also called murine mAb BAP049; Mu mAb) VH: QVQLQQSGSELVRPGASVKLSCKASGYTFTTYWMHWVRQRPGQGLEWIGNIYPGTGGSNFDEKFKNRTSLTVDTSSTTAYMHLASLTSEDSAVYYCTRWTTGTGAYWGQGTLVTVSA VL: DIVMTQSPSSLTVTAGEKVTMSCKSSQSLLDSGNQKNFLTWYQQKPGQPPKLLIFWASTRESGVPDRFTGSGSVTDFTLTISSVQAEDLAVYYCQNDYSYPCTFGGGTKLEIK
Result block: ~0.6 mg/L
